Tested on: A549
Experiment summary: Cytotoxicity against human A549 cells assessed as growth inhibition after 72 hrs by MTT assay
Condition parameters: A549, 72 h
pIC50: −log10 of the molar value.
Recorded pIC50 values for a group of compounds are listed next.
Measured quantity: pIC50

>>> measurement("CC(=O)Oc1cc(C(=O)C2=C(O)[C@]3(CC=C(C)C)C[C@@H](C/C=C(\\C)CCC=C(C)C)[C@](C)(CCC=C(C)C)[C@](CC=C(C)C)(C2=O)C3=O)ccc1O")
5.12
>>> measurement("CC(C)=CCC/C(C)=C/C[C@@H]1C[C@]2(CC=C(C)C)C(=O)[C@@](CC=C(C)C)(C(=O)C(C(=O)c3ccc(O)c(OC(=O)CCCC[C@@H]4SCC5NC(=O)NC54)c3)=C2O)[C@@]1(C)CCC=C(C)C (stereo not given in full)")
4.95
>>> measurement("CC(C)=CCC/C(C)=C/C[C@@H]1C[C@]2(CC=C(C)C)C(=O)[C@@](CC=C(C)C)(C(=O)C(C(=O)c3ccc(O)c(O)c3)=C2O)[C@@]1(C)CCC=C(C)C")
5.37
>>> measurement("CC(=O)Oc1ccc(C(=O)C2=C(O)[C@]3(CC=C(C)C)C[C@@H](C/C=C(\\C)CCC=C(C)C)[C@](C)(CCC=C(C)C)[C@](CC=C(C)C)(C2=O)C3=O)cc1OC(C)=O")
4.78
